- System: A-375
- METHOD: Antiproliferative activity against human A375 cells after 48 hrs by MTT assay
- Assay type: functional, cell-based
- SETUP_CONDITIONS: A-375, 48 h
MEASUREMENT_LABEL: IC50 (µM)

# SMILES_INPUT, MEASUREMENT_LABEL, UNITS, NUMERIC_RESULT
rows = [
    ("Cc1ccc(C(=O)c2c(-c3ccccc3)sc(C)c2C)cc1", "IC50", "µM", 51.2),
    ("Cc1sc(C#Cc2ccccc2)c(C(=O)c2ccc([N+](=O)[O-])cc2)c1C", "IC50", "µM", 21.2),
    ("Cc1ccc(C#Cc2sc3c(c2C(=O)c2ccc([N+](=O)[O-])cc2)CCCC3)cc1", "IC50", "µM", 13.1),
    ("Cc1sc(C#Cc2ccccc2)c(C(=O)c2ccccc2)c1C", "IC50", "µM", 28),
    ("Cc1ccc(C(=O)c2c(C#Cc3ccccc3)sc(C)c2C)cc1", "IC50", "µM", 43.2),
]

A: COc1ccc(C(=O)c2c(C#Cc3ccccc3)sc(C)c2C)cc1
B: Cc1ccc(C(=O)c2c(-c3ccccc3)sc3c2CCCCC3)cc1
(Q) Which has the smaller recorded IC50, A or B ? Please indicate the selected item by its label.
(A) B

I: O=C(c1ccccc1)c1c(-c2ccccc2)sc2c1CCCCC2
II: COc1cc(C(=O)c2c(C#Cc3ccccc3)sc3c2CCCC3)cc(OC)c1OC
(Q) Which has the smaller recorded IC50, I or II ? Please indicate the selected item by its label.
(A) II
(II: 3.88 µM, I: 7.72 µM)
